Hey, just so you know, these numbers are from patent US9440982B2.

Exercise: for every item that follows, state its recorded IC50.
- assayed.target: OX1 (Homo sapiens, UniProt O43613)
- Construct: expressed in transfected cells; host or cells: CHO (CHO-OX1, kept under selection antibiotic)
- assay.explanation: Orexin receptor cell-based functional assay, [Ca2+]i by FLIPR, CHO-OX1 cells
- measurement.conditions: CHO-OX1 cells, [Ca2+]i by FLIPR, antagonist dose-range 0.1 nM-10 μM, EC90 of OXA; read-out: OX1
Report the figure in nM without appending any unit label.

[ask] Bench note: what IC50 did C[C@@H]1CCCN(C(=O)c2c(F)ccc(F)c2-n2nccn2)[C@@H]1CNc1ccc(C(F)(F)F)cn1 show?
[reply] 2

[ask] Bench note: what IC50 did Cc1ccc(-n2nccn2)c(C(=O)N2CCC[C@@H](C)[C@H]2CNc2ncc(C#N)cn2)c1 show?
[reply] 150

[ask] Bench note: what IC50 did Cc1ccc(-n2nccn2)c(C(=O)N2CCC[C@@H](C)[C@H]2CNc2ccc(C#N)cn2)c1 [Example A127] show?
[reply] 5

----------
Exercise: for every item that follows, state its recorded pIC50.
- assayed.target: OX1 (Homo sapiens)
- Construct: expressed in transfected cells; host or cells: CHO (CHO-OX1, kept under selection antibiotic)
- Sequence (O43613 1-425): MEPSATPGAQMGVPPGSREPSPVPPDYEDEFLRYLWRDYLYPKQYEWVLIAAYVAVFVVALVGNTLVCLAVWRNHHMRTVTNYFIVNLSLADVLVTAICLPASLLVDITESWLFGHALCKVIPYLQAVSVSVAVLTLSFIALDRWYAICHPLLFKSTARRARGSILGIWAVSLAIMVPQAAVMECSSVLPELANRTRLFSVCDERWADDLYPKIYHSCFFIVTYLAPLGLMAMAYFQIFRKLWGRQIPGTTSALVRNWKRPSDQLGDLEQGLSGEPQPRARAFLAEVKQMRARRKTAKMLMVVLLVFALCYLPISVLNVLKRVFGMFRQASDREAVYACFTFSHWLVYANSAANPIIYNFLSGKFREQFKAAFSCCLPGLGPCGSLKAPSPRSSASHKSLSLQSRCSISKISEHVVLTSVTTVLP
- assay.explanation: Orexin receptor cell-based functional assay, [Ca2+]i by FLIPR, CHO-OX1 cells
- measurement.conditions: CHO-OX1 cells, [Ca2+]i by FLIPR, antagonist dose-range 0.1 nM-10 μM, EC90 of OXA; read-out: OX1
Scale: pIC50 equals -log10([C]), with [C] in mol/L.

[ask] pIC50 of C[C@@H]1CCCN(C(=O)c2cc(Cl)ccc2-c2ncccn2)[C@@H]1CNc1ncc(C(F)(F)F)cn1 [Example A201] on OX1 (Homo sapiens)?
[reply] 8.40

[ask] pIC50 of Cc1ccc(C(=O)N2CCC[C@@H](C)[C@H]2CNc2ccc(C(F)(F)F)cn2)c(-n2nccn2)c1F [Example A356] on OX1 (Homo sapiens)?
[reply] 8.70

[ask] pIC50 of Cc1ccc(-c2ncccn2)c(C(=O)N2CCC[C@@H](C)[C@H]2CNc2ccc(Cl)cn2)c1 [Example A138] on OX1 (Homo sapiens)?
[reply] 7.92

[ask] pIC50 of Cc1cccc(C(=O)N2CCC[C@@H](C)[C@H]2CNc2ccc(C(F)(F)F)cn2)c1-c1ncccn1 [Example A298] on OX1 (Homo sapiens)?
[reply] 8.30
